Target: purified recombinant human Aggrecanase-1 (rAgg1) (Homo sapiens, UniProt O75173)
Sequence (O75173 213-837): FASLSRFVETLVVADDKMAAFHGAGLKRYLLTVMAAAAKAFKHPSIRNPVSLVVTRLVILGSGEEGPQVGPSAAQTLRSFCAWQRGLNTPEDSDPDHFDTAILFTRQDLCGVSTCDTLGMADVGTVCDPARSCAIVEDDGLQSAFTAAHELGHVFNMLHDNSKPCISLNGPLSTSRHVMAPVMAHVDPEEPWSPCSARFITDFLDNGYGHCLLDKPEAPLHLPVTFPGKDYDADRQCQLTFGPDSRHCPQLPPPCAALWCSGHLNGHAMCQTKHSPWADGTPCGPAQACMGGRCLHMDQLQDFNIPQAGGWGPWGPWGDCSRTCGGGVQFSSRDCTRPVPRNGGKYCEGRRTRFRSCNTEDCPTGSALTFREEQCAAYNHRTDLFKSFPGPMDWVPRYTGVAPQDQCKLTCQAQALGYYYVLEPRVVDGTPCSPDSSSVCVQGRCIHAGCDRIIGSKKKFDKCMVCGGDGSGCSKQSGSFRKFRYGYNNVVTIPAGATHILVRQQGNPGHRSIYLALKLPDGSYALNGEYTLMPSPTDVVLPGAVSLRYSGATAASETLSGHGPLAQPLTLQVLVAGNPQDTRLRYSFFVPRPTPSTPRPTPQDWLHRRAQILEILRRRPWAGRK
Assay: In vitro fluorescence screen for Aggrecanase-1 inhibitors
Assay type: biochemical
Conditions: Table 1; read-out: Agg1 IC50
pIC50: −log10 of the molar value.
reported_metric: pIC50

Example entries begin here.
compound	pIC50
O=C(O)CC[C@H](NC(=O)c1ccc(-c2ccccc2)cc1)C(=O)NCc1ccc(Oc2ccccc2)cc1	7.12
CC(C)(C)CC(C)(C)NC(=O)[C@H](CCC(=O)O)NC(=O)c1ccc(-c2ccccc2)cc1	6.82
O=C(O)CC[C@H](NC(=O)c1ccc(-c2cccs2)cc1)C(=O)NCc1ccccc1	6.96

[a] O=C(O)CC[C@H](NC(=O)c1ccc(-c2ccccc2)cc1Cl)C(=O)NCc1ccccc1 [Example 17YY]
[b] COCCNC(=O)[C@H](CCC(=O)O)NC(=O)c1ccc(-c2ccccc2)cc1
[c] O=C(O)CC[C@H](NC(=O)c1ccc(-c2ccccc2)cc1)C(=O)NCc1cccc(-c2ccccn2)c1 [Example 10Q]
[d] O=C(O)CC[C@H](NC(=O)c1ccc(-c2ccccc2)cc1)C(=O)NCc1cccc(OC(F)(F)F)c1
[e] CC(=O)NCCNC(=O)[C@H](CCC(=O)O)NC(=O)c1ccc(-c2ccccc2)cc1
Hey, quick one: sort these by pIC50, low to high? I'd appreciate it if you listed the labels in the requested order. a, e, b, d, c
(a: 5.70, e: 6.17, b: 6.44, d: 6.70, c: 7.01)

[P] O=C(O)CC[C@H](NC(=O)c1ccc(-c2ccccc2)cc1)C(=O)NCc1ccc(OC(F)(F)F)cc1
[Q] O=C(O)CC[C@H](NC(=O)c1ccc(-c2ccc(NC(=O)c3ccccc3)cc2)cc1)C(=O)O
[R] CSc1ccc(CNC(=O)[C@H](CCC(=O)O)NC(=O)c2ccc(-c3ccccc3)cc2)cc1
List these items ordered by pIC50, big to small. Form entry: labels listed in requested order. R, P, Q
(R: 6.80, P: 6.52, Q: 6.30)
